# Tested on: human T-lymphocyte (CEM) cells
# method-description: Cytostatic activity, CEM cell proliferation
# Type: cell-based
# cond: mean ± SD of three experiments; highest concentration tested 250 µM; 3 days; read-out: Toxicity (IC50) CEM
pIC50: −log10 of the molar value.
reported-endpoint: pIC50

compound="CCCCOc1ccc(C(=O)NCCCNC(=O)C2NC(=O)C3NC(=O)C(NC(=O)C4NC(=O)C(CC(N)=O)NC(=O)C(NC(=O)C(CC(C)C)NC)C(O)c5ccc(c(Cl)c5)Oc5cc4cc(c5OC4OC(CO)C(O)C(O)C4OC4CC(C)(N)C(O)C(C)O4)Oc4ccc(cc4Cl)C3O)c3ccc(O)c(c3)-c3c(O)cc(O)cc32)cc1 (centres unmarked)" reported_endpoint=pIC50 test_result=4.07
compound="CNC(CC(C)C)C(=O)NC1C(=O)NC(CC(N)=O)C(=O)NC2C(=O)NC3C(=O)NC(C(=O)NC(C(=O)NCCCNC(=O)c4ccc(-c5ccc(-c6ccccc6)cc5)cc4)c4cc(O)cc(O)c4-c4cc3ccc4O)C(O)c3ccc(c(Cl)c3)Oc3cc2cc(c3OC2OC(CO)C(O)C(O)C2OC2CC(C)(N)C(O)C(C)O2)Oc2ccc(cc2Cl)C1O (centres unmarked)" reported_endpoint=pIC50 test_result=6.01

###

# Test system: S. aureus VISA/HIP5827
# method-description: MIC, broth microdilution, vancomycin-intermediate S. aureus VISA HIP5827
# Assay type: cell-based, Staphylococcus aureus
# cond: Staphylococcus aureus VISA/HIP5827; read-out: MIC
# maps each entry to its MIC
reported-endpoint: MIC (µM)

compound=CN[C@H](CC(C)C)C(=O)N[C@H]1C(=O)N[C@@H](CC(N)=O)C(=O)N[C@H]2C(=O)N[C@H]3C(=O)N[C@H](C(=O)N[C@H](C(=O)NCC(=O)Nc4cccc(F)c4)c4cc(O)cc(O)c4-c4cc3ccc4O)[C@H](O)c3ccc(c(Cl)c3)Oc3cc2cc(c3O[C@@H]2O[C@H](CO)[C@@H](O)[C@H](O)[C@H]2O[C@H]2C[C@](C)(N)[C@H](O)[C@H](C)O2)Oc2ccc(cc2Cl)[C@H]1O test_result=0.78
compound="CCCCC[N+](C)(C)CCCNC(=O)c1ccc(NC(=O)CNC(=O)C2NC(=O)C3NC(=O)C(NC(=O)C4NC(=O)C(CC(N)=O)NC(=O)C(NC(=O)C(CC(C)C)NC)C(O)c5ccc(c(Cl)c5)Oc5cc4cc(c5OC4OC(CO)C(O)C(O)C4OC4CC(C)(N)C(O)C(C)O4)Oc4ccc(cc4Cl)C3O)c3ccc(O)c(c3)-c3c(O)cc(O)cc32)cc1 (stereo not drawn)" test_result=6.25
compound=CN[C@H](CC(C)C)C(=O)N[C@H]1C(=O)N[C@@H](CC(N)=O)C(=O)N[C@H]2C(=O)N[C@H]3C(=O)N[C@H](C(=O)N[C@H](C(=O)NCCNC(=O)/C=C/c4ccc(NS(=O)(=O)c5ccc(C)cc5)cc4)c4cc(O)cc(O)c4-c4cc3ccc4O)[C@H](O)c3ccc(c(Cl)c3)Oc3cc2cc(c3O[C@@H]2O[C@H](CO)[C@@H](O)[C@H](O)[C@H]2O[C@H]2C[C@](C)(N)[C@H](O)[C@H](C)O2)Oc2ccc(cc2Cl)[C@H]1O test_result=0.78

###

# Test system: Clostridium difficile AIU ribotype 027
# method-description: MIC, plate drop assay, C. difficile AIU ribotype 027
# Format: cell-based
# cond: C. difficile AIU ribotype 027, plate drop assay
Recorded MIC for the following molecules
reported-endpoint: MIC (µM)

molecule=CN[C@H](CC(C)C)C(=O)N[C@H]1C(=O)N[C@@H](CC(N)=O)C(=O)N[C@H]2C(=O)N[C@H]3C(=O)N[C@H](C(=O)N[C@H](C(=O)NCCNC(=O)/C=C/c4ccc(F)cc4)c4cc(O)cc(O)c4-c4cc3ccc4O)[C@H](O)c3ccc(c(Cl)c3)Oc3cc2cc(c3O[C@@H]2O[C@H](CO)[C@@H](O)[C@H](O)[C@H]2O[C@H]2C[C@](C)(N)[C@H](O)[C@H](C)O2)Oc2ccc(cc2Cl)[C@H]1O reported_endpoint=MIC test_result=6.25
molecule=CCCCC#Cc1ccc(/C=C/C(=O)NCCNC(=O)[C@H]2NC(=O)[C@H]3NC(=O)[C@H](NC(=O)[C@@H]4NC(=O)[C@H](CC(N)=O)NC(=O)[C@H](NC(=O)[C@@H](CC(C)C)NC)[C@H](O)c5ccc(c(Cl)c5)Oc5cc4cc(c5O[C@@H]4O[C@H](CO)[C@@H](O)[C@H](O)[C@H]4O[C@H]4C[C@](C)(N)[C@H](O)[C@H](C)O4)Oc4ccc(cc4Cl)[C@H]3O)c3ccc(O)c(c3)-c3c(O)cc(O)cc32)cc1 reported_endpoint=MIC test_result=0.78
molecule="CNC(CC(C)C)C(=O)NC1C(=O)NC(CC(N)=O)C(=O)NC2C(=O)NC3C(=O)NC(C(=O)NC(C(=O)NCCCNC(=O)c4ccc(-c5ccc(F)cc5)cc4)c4cc(O)cc(O)c4-c4cc3ccc4O)C(O)c3ccc(c(Cl)c3)Oc3cc2cc(c3OC2OC(CO)C(O)C(O)C2OC2CC(C)(N)C(O)C(C)O2)Oc2ccc(cc2Cl)C1O (stereo not drawn)" reported_endpoint=MIC test_result=1.56
